meta.source: patent US8206756B2

# Test system: IL-8
# Protocol Notes: LPS-stimulated IL-8 release in hPBMCs (ELISA)
# Format: cell-based
# Condition: Homo sapiens; LPS-stimulated hPBMC
Assay Metric: pIC50
Entry type: numeric. Quantity: pIC50, the -log10 of concentration in molar units.

Query :: Name the recorded pIC50 for C=C1C(=O)OC2C3=C(C)CCCC3(C)CCC12O (stereo not shown) [Compound 1] .
Result :: 5.05

###

# Test system: ICAM-1
# Protocol Notes: Cell-ELISA for adhesion molecule expression in HUVECs: ICAM-1
# Type: cell-based
# Condition: Homo sapiens; TNF-α-induced surface expression, HUVEC
# Procedure: The assay was designed on the basis of reference Transplantation, Vol 63(5), 759-764, 1997 with modifications. […] HUVECs were plated at […] in 96-well fibronectin-coated plates. […] After washing, seven times, 3,3′5,5′-tetramethylbenzidine liquid substrate (TMB substrate) was added and the optical density of each well was determined at 450 nm using a microtitre plate reader (Spectramax, Molecular Devices, Calif.). […] Percent inhibition of the test sample compared to the control is evaluated. […]
Assay Metric: pIC50
The meaning of pIC50 here: minus log10 of the concentration in molar units.

Query :: For C=C1C(=O)OC2C3=C(C)CCCC3(C)CCC12O (stereo not shown) , what is its reported pIC50?
Result :: 6.28
